target: AChE from Electrophorus electricus (Electrophorus electricus); construct: purchased Sigma-Aldrich, Germany; assay: biochemical; settings: 10 µM compound, t = 25 min, triplicates, mean ± SD
parameter: AChE residual activity at 10 µM (% of untreated)

Here is how some compounds turned out for AChE residual activity at 10 µM (% of untreated).
[[record]]
structurenotation = "Cc1occc2c(C)c(=S)oc1-2"
observedresult = "91 ± 2 % of untreated"

[[record]]
structurenotation = "Cc1cc2c(C)c(=O)oc-2cs1"
observedresult = "90 ± 2 % of untreated"

[[record]]
structurenotation = "Cc1sccc2c(C)c(=S)oc1-2"
observedresult = "86 ± 2 % of untreated"

[[record]]
structurenotation = "S=c1cc2ccscc-2o1"
observedresult = "92 ± 1 % of untreated"

[[record]]
structurenotation = "Cc1sccc2c(C)c(=O)oc1-2"
observedresult = "91 ± 2 % of untreated"


Fill in the blank: the reported AChE residual activity at 10 µM (% of untreated) of O=c1cc2ccscc-2o1 is ____.
99 ± 0.4 % of untreated

Would you kindly repeat that for Cc1c2ccscc-2oc1=S ?
97 ± 5 % of untreated

Another compound: S=c1cc2ccocc-2o1
99 ± 3 % of untreated

* * *

molecular target: AChE from Electrophorus electricus (Electrophorus electricus, UniProt O42275); construct: purchased Sigma-Aldrich, Germany; assay: biochemical; conditions: 10 µM compound, t = 25 min, triplicates, mean ± SD
Sequence (O42275 24-633): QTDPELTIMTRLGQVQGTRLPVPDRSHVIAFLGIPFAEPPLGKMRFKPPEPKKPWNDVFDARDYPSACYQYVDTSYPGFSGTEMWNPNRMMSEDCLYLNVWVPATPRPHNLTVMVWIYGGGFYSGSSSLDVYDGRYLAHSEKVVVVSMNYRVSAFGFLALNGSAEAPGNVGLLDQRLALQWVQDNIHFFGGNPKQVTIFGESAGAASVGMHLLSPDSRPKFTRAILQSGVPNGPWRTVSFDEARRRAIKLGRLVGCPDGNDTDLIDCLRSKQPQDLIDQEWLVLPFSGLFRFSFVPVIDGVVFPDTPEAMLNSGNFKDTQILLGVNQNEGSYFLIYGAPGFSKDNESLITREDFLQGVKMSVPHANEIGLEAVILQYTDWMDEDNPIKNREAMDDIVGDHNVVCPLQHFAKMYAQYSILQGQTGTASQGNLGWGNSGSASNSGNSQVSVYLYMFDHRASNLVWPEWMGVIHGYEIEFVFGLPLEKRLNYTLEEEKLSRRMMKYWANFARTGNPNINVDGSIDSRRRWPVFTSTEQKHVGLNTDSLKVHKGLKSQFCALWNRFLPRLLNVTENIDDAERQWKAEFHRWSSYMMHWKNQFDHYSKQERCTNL
Items are presented alongside their recorded AChE residual activity at 10 µM (% of untreated).

I have this molecule here, Cc1cc2c(C)c(=S)oc-2co1 , and I need its recorded AChE residual activity at 10 µM (% of untreated).
93 ± 3 % of untreated

Follow-up entry: Cc1c2ccocc-2oc1=S
95 ± 8 % of untreated

Next: Cc1cc2c(C)c(=S)oc-2cs1
85 ± 1 % of untreated
